Experiment Description: NCI Yeast Anticancer Drug Screen. Data for the CLN2oe strain (AID 163);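 note: 0% = growth of vehicle-only control cultures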
Measurement Conditions: S. cerevisiae CLN2oe strain, at 100.0 µM, active compounds read high
Experimental: Growth inhibition of yeast strains with defined genetic alterations is measured as a screen for potential anti-cancer activity. Selected strains with alterations in DNA damage repair or cell cycle control were exposed to compounds and growth inhibition was measured relative to vehicle treated controls. The strain used in this assay is CLN2oe
The panel holds about 79,000 compounds, 15% with a hit somewhere; the sample as a whole holds those more often.
Endpoint Name: growth inhibition (%)
Give the number; % is assumed, so skip it.

If you can, please state the reported growth inhibition value of CC1CC[C@]2(C(=O)O)CCC3(C)C(=CC(=O)C4[C@@]5(C)CCC(=O)C(C)(C)C5CC[C@]43C)[C@@H]2[C@H]1C (some centres undefined) .
97

Also need O=C(c1ccc([N+](=O)[O-])cc1)C1N=NCC1c1ccccc1 (centres undefined) , thanks.
54

What do we get for `Cc1cc2cc3cc(C)c(N)cc3nc2cc1N` ?
83

Please give the result for `CC1(C)CC(=O)C(/C=N/c2nc(-c3ccccc3)cs2)=C(O)C1` too.
61

Next compound: `CSc1nnc(SC)nn1`
98

Also `CC(C)/C(Cl)=N\OC(=O)Nc1ccc(F)cc1F` , if possible.
24

What do you have for CCCCCCCCCCCC1N=C(N)NC(CCCO)=C1C(=O)OC (centres undefined) ?
99

Now the same for `CC(C)(C)CC(C)(C)c1cc(O)c(O)c(CN2CCCCC2)c1`
49

O=C(O)C1CC(c2ccccc2)=NN1c1ccccc1 (centres undefined) , same question.
97

Query COc1cc(C2SCC(=O)N2c2ccc(-c3ccc(-n4c(-c5ccccc5)nc5ccccc5c4=O)cc3)cc2)ccc1O (centres undefined) next
-14

Please answer likewise for `CCOC(=O)c1[nH]n(-c2ccccc2)c(=O)c1C=NC(=S)C(N)=S`
97

Can you handle `CCCCCCCCCCCC1=NCCO1` next?
99

Also `CCCCOCn1c(=O)[nH]c(=O)c2cc(Br)ccc21` , if possible.
-29

Ok, now CCOC(=O)C1=C(C)NC(C)=C(C(=O)OCCNC(=O)c2ccc(N=[N+]=[N-])cc2)C1c1ccccc1C(F)(F)F (centres undefined)
53

What do you have for `O=C1C=C(N2CCN(c3ccccn3)CC2)C(=O)c2c(O)ccc(O)c21` ?
21

Proceed to `COc1cc(/C=C2\NC(=O)N(/C=C3\C(=O)Oc4ccccc4C3=O)C2=O)ccc1O`
96

Another compound: `CCCC(=O)Oc1ccc(/C=N/NC(N)=S)nc1`
-8

How about `O=[N+]([O-])/C=C/c1cc(Cl)c(/C=C/[N+](=O)[O-])cc1Cl` ?
73

Now consider `CNC(=O)OCc1c(COC(=O)NC)c2n(c1C)-c1ccc(OC)cc1CCC2` and answer again.
100

Next compound up: `O=C1C=C(Cl)C(=O)N1c1cccc(Cl)c1`
99

Same read-out for `COC(=O)Oc1cc(Cl)c(Cl)cc1Cl` ?
-4

Proceed to `O=C1NC(=O)c2ccc([N+](=O)[O-])c3cccc1c23`
68

// same read-out, input: `Cc1ccc(Cl)cc1NC(=O)OCCN(C)C(=O)Nc1cc(Cl)ccc1C`
-26

Now the same for O=C1/C(=C/c2ccccc2)CCCC1CN1CCCCC1 (centres undefined)
83

Repeat for the following compound: `Cc1c2ccnc(C(=O)NCCN(C)C)c2cc2c3cc(O)ccc3n(C)c12`
19

Please do the same for `S=c1[nH]c2cc3ccccc3cc2[nH]1` as well.
18

Then this compound: `CC(=O)ON=C1C=CC(=C(C#N)c2ccc(Cl)cc2)C=C1`
56

Queued: `COc1cc(CSc2ccc(O)cc2)cc(O)c1O`
17

And for `CCOC1(c2cccc([N+](=O)[O-])c2)c2ccccc2Oc2ccccc21` ?
2

Next entry: CCCC(O)C1CC(C(C)C)CCC1C (centres undefined)
12

And CCCCC(CC)C(=O)[O][Sn]([CH2]CCC)([CH2]CCC)[O]C(=O)C(CC)CCCC (centres undefined) ?
98

And the next one, COc1ccc(NC(=O)CC2SC(=Nc3ccccc3C)NC2=O)c([N+](=O)[O-])c1 (centres undefined) ?
16

And then O=C1OC(C2=CC(=O)c3ccccc3C2=O)C(Cl)=C1Cl (centres undefined) , what is it?
30

// query: `COC1=C(N)C(=O)c2nc(-c3nc(C(=O)O)c(C)c(-c4ccc(OC)c(OC)c4O)c3N)ccc2C1=O`
96

Then `Cc1cc2c3ccccc3c3ccccc3c2nn1` ?
0

Moving on to `O=C(CSC(=S)N1CCCCC1)Nc1nc2c(s1)CCCC2`
61

What about `Cc1ccccc1N=C(NO)c1ccccc1` ?
95

Try the compound OC1(c2ccccc2)CCCc2ccc(Cl)cc21 (centres undefined)
99

Cool, now `O=C(COC(=O)c1ccccc1)c1ccc(Br)cc1`
97

// same read-out, input: CCCOC(=O)C(F)C(Br)C(=O)OCCC (centres undefined)
98

Repeat with `C/C=C/SC(=Nc1ccccc1)Nc1ccccc1`
97

Try COc1cc(C2c3cc4c(cc3OC(OC(C)=O)C2C)OCO4)cc(OC)c1OC (centres undefined) next.
72

Now the same for `Brc1ccccc1-c1ncc(-c2ccccc2)o1`
5

And then CC1OC(O[C@H]2/C=C/C=C/C=C/C=C/C=C/C=C/C=C/[C@H](C)[C@@H](O)[C@@H](C)[C@H](C)OC(=O)C[C@H](O)C[C@H](O)CC[C@@H](O)[C@H](O)C[C@H](O)C[C@]3(O)C[C@H](O)[C@@H](C(=O)O)[C@H](C2)O3)C(O)C(N)C1O (some centres undefined) , what is it?
98
